Cited source for all entries: paper PMC4175339

target: human PDI + hyperactive human Ero1α (Ero1α-mediated PDI oxidation) (Homo sapiens); construct: recombinant from E. coli; with ERO1-like protein alpha; test: NADPH consumption assay coupled to glutathione reductase, A340
Sequence (P07237 18-508): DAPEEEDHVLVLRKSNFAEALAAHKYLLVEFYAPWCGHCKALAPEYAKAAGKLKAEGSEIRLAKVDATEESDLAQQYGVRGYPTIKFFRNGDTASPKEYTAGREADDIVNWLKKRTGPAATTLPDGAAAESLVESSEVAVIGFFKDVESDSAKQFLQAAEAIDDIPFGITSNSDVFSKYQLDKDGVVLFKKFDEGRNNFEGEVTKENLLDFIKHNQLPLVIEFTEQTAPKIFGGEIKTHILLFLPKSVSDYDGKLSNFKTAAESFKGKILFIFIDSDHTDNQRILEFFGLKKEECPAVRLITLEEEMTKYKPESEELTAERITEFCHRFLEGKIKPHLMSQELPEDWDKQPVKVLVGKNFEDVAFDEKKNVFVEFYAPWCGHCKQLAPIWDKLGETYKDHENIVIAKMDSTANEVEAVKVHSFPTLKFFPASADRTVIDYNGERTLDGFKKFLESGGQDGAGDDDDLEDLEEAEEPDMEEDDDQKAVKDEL
Sequence (Q96HE7 24-468 C104A/C131A partner): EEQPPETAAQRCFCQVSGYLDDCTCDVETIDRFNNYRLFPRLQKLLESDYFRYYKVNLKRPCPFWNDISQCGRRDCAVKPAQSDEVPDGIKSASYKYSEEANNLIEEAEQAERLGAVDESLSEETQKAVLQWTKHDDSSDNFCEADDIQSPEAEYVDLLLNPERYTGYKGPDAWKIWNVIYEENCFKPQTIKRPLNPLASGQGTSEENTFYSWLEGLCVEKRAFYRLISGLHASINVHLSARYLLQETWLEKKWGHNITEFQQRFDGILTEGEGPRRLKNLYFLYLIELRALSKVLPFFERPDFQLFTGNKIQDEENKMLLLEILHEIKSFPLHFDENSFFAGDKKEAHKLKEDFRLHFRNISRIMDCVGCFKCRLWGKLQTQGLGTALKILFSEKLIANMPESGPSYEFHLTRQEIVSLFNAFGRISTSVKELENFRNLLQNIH
Reported endpoint: pIC50
Convention used: pIC50 is expressed as -log10 of the molar concentration.

Look at this compound and give its reported pIC50. CC(C)(c1ccc(O)cc1)c1ccc(O)cc1 [bisphenol A, 2,2′-bis(4-hydroxyphenyl) propane]
4.39
